- testedOn: purified human PRX3 (Homo sapiens)
- Construct: made in house
- testName: Biochemical PRX3 Inhibition Assay (non-reducible crosslink by SDS PAGE + single adduct by MALDI-TOF MS)
- statedConditions: 100 μM PRX3 with TRX2/thioredoxin reductase/NADPH system and hydrogen peroxide, 1-2 hr at 37° C.
- Method: The compounds described herein generally react with two essential cysteine residues in the mitochondrial peroxidase PRX3, leading to the formation of a non-reducible, covalent crosslink of two PRX3 monomers. This crosslink inactivates PRX3. […] To measure covalent adduct formation on a single PRX3 monomer, each reaction was exchanged into a mass spectrometry compatible buffer containing 40 mM ammonium citrate, pH 8.3 made in HPLC water. […] Spectra were analyzed in FLEXAnalysis Software. […]
experimentalEndpoint: PRX3 Inhibition (Crosslink + Mono-adduct)

[
  {
    "smilesStructure": "C=C(NC(=O)c1csc(-c2ccc(C(=O)NCCOC)cc2)n1)C(=O)NC(=C)C(=O)OC",
    "result": "+++ (>90%)"
  },
  {
    "smilesStructure": "C=C(NC(=O)c1csc(-c2ccc(CNC(=O)OCCOC)cc2)n1)C(=O)NC(=C)C(=O)OC",
    "result": "++ (50-90%)"
  },
  {
    "smilesStructure": "C=C(NC(=O)c1csc(-c2ccc(CNC(=O)OCCOCCNC(=O)OC(C)(C)C)cc2)n1)C(=O)NC(=C)C(=O)OC",
    "result": "+++ (>90%)"
  },
  {
    "smilesStructure": "C=C(NC(=O)c1csc(-c2cccc(C(=O)OC(C)(C)C)c2)n1)C(=O)NC(=C)C(=O)OC",
    "result": "+++ (>90%)"
  },
  {
    "smilesStructure": "C=C(NC(=O)c1csc(-c2cccc(CNC(=O)OC(C)(C)C)c2)n1)C(=O)NC(=C)C(=O)OC",
    "result": "+++ (>90%)"
  },
  {
    "smilesStructure": "C=C(NC(=O)c1csc(N2CCC(NC(=O)CC3CCOCC3)CC2)n1)C(=O)NC(=C)C(=O)OC",
    "result": "+++ (>90%)"
  },
  {
    "smilesStructure": "C=C(NC(=O)c1csc(N2CCC(NC(=O)OC(C)(C)C)CC2)n1)C(=O)NC(=C)C(=O)OC",
    "result": "+++ (>90%)"
  },
  {
    "smilesStructure": "C=C(NC(=O)c1csc(N2C[C@@H](C)N(C(=O)OC(C)(C)C)[C@@H](C)C2)n1)C(=O)NC(=C)C(=O)OC",
    "result": "++ (50-90%)"
  },
  {
    "smilesStructure": "C=C(NC(=O)c1csc(N2CCC[C@@H](NC(=O)OC(C)(C)C)C2)n1)C(=O)NC(=C)C(=O)OC",
    "result": "+++ (>90%)"
  },
  {
    "smilesStructure": "C=C(NC(=O)c1csc(-c2cccc(COCCOC)c2)n1)C(=O)NC(=C)C(=O)OC",
    "result": "+++ (>90%)"
  },
  {
    "smilesStructure": "C=C(NC(=O)c1csc(N2CCC(N(C)C(=O)OCC)CC2)n1)C(=O)NC(=C)C(=O)OC",
    "result": "+++ (>90%)"
  },
  {
    "smilesStructure": "C=C(NC(=O)c1csc(-c2ccc(OCCOC)cc2)n1)C(=O)NC(=C)C(=O)OC",
    "result": "++ (50-90%)"
  },
  {
    "smilesStructure": "C=C(NC(=O)c1csc(N2CCC(NC(=O)OCCOC)CC2)n1)C(=O)NC(=C)C(=O)OC",
    "result": "+++ (>90%)"
  },
  {
    "smilesStructure": "C=C(NC(=O)c1csc(C2CCN(C(=O)OC(C)(C)C)CC2)n1)C(=O)NC(=C)C(=O)OC",
    "result": "++ (50-90%)"
  }
]

====

- testedOn: purified human PRX3 (Homo sapiens, UniProt P30048)
- Construct: made in house
- Sequence (P30048 62-256): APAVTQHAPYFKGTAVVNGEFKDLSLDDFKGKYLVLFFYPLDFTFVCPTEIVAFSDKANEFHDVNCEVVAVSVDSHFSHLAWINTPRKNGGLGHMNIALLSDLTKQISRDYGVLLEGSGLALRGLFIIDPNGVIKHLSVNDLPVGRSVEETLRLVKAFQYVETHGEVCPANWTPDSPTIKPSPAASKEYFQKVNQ
- testName: Biochemical PRX3 Inhibition Assay (non-reducible crosslink by SDS PAGE + single adduct by MALDI-TOF MS)
- statedConditions: 100 μM PRX3 with TRX2/thioredoxin reductase/NADPH system and hydrogen peroxide, 1-2 hr at 37° C.
experimentalEndpoint: PRX3 Inhibition (Crosslink + Mono-adduct)

[
  {
    "molecule": "C=C(NC(=O)c1csc(C2CCCN(C(=O)OC(C)(C)C)C2)n1)C(=O)NC(=C)C(=O)OC (stereo not shown)",
    "result": "++ (50-90%)"
  },
  {
    "molecule": "C=C(NC(=O)c1csc(-c2ccc(NC(=O)CCCCCN=[N+]=[N-])cc2)n1)C(=O)NC(=C)C(=O)OC",
    "result": "++ (50-90%)"
  },
  {
    "molecule": "C=C(NC(=O)c1csc(-c2ccc(OC)cc2)n1)C(=O)NC(=C)C(=O)OC",
    "result": "++ (50-90%)"
  }
]

====

Listed here are compounds together with their documented solubility.
- testName: Solubility Assay (HPLC)
- Type: physicochemical
- statedConditions: HEPES/NaCl buffer, aqueous with cosolvent or surfactant or cyclodextrin, kinetic from dmso stock; 20 mM HEPES, 100 mM NaCl, pH 7.5, 18-24 hours at ambient temperature; read-out: Solubility

[
  {
    "smilesStructure": "C=C(NC(=O)c1csc(N2C[C@@H](C)N(C(=O)OC(C)(C)C)[C@@H](C)C2)n1)C(=O)NC(=C)C(=O)OC",
    "solubility": "< 100 µM"
  },
  {
    "smilesStructure": "C=C(NC(=O)c1csc(-c2ccc(CNC(=O)CCCCCCl)cc2)n1)C(=O)NC(=C)C(=O)OC",
    "solubility": "< 100 µM"
  },
  {
    "smilesStructure": "C=C(NC(=O)c1csc(C2=CCN(C(=O)OC(C)(C)C)CC2)n1)C(=O)NC(=C)C(=O)OC",
    "solubility": "< 100 µM"
  },
  {
    "smilesStructure": "C=C(NC(=O)c1csc(-c2cccc(C(=O)OC(C)(C)C)c2)n1)C(=O)NC(=C)C(=O)OC",
    "solubility": "< 100 µM"
  },
  {
    "smilesStructure": "C=C(NC(=O)c1csc(-c2ccc(CNC(=O)COCCOC)cc2)n1)C(=O)NC(=C)C(=O)OC",
    "solubility": "100 to 1000 µM"
  },
  {
    "smilesStructure": "C=C(NC(=O)c1csc(-c2ccc(CNC(=O)CCCCCNC(=O)OC(C)(C)C)cc2)n1)C(=O)NC(=C)C(=O)OC",
    "solubility": "< 100 µM"
  },
  {
    "smilesStructure": "C=C(NC(=O)c1csc(N2CCN(C(=O)OC(C)(C)C)[C@H](C)C2)n1)C(=O)NC(=C)C(=O)OC",
    "solubility": "< 100 µM"
  },
  {
    "smilesStructure": "C=C(NC(=O)c1csc(N2CCN(C(=O)OC(C)(C)C)CC2)n1)C(=O)NC(=C)C(=O)OC",
    "solubility": "100 to 1000 µM"
  },
  {
    "smilesStructure": "C=C(NC(=O)c1csc(N2CCC[C@H](NC(=O)OC(C)(C)C)C2)n1)C(=O)NC(=C)C(=O)OC",
    "solubility": "< 100 µM"
  },
  {
    "smilesStructure": "C=C(NC(=O)c1csc(-c2ccc(CNC(=O)CCCCCN=[N+]=[N-])cc2)n1)C(=O)NC(=C)C(=O)OC",
    "solubility": "< 100 µM"
  },
  {
    "smilesStructure": "C=C(NC(=O)c1csc(N2CCN(C(=O)C3CCOCC3)CC2)n1)C(=O)NC(=C)C(=O)OC",
    "solubility": "100 to 1000 µM"
  },
  {
    "smilesStructure": "C=C(NC(=O)c1csc(-c2ccc(COC(=O)NCCCOC)cc2)n1)C(=O)NC(=C)C(=O)OC",
    "solubility": "< 100 µM"
  },
  {
    "smilesStructure": "C=C(NC(=O)c1csc(N2CCC(CNC(=O)CCCCCCl)CC2)n1)C(=O)NC(=C)C(=O)OC",
    "solubility": "100 to 1000 µM"
  },
  {
    "smilesStructure": "C=C(NC(=O)c1csc(N2CCOCC2)n1)C(=O)NC(=C)C(=O)OC",
    "solubility": "100 to 1000 µM"
  },
  {
    "smilesStructure": "C=C(NC(=O)c1csc(-c2ccc(CNC(=O)OCC3CCOCC3)cc2)n1)C(=O)NC(=C)C(=O)OC",
    "solubility": "< 100 µM"
  }
]
